Values compiled from patent US8372854B2.

- assayTarget: JAK3 (Homo sapiens)
- Construct: PV3855
- Sequence (P52333 whole entry): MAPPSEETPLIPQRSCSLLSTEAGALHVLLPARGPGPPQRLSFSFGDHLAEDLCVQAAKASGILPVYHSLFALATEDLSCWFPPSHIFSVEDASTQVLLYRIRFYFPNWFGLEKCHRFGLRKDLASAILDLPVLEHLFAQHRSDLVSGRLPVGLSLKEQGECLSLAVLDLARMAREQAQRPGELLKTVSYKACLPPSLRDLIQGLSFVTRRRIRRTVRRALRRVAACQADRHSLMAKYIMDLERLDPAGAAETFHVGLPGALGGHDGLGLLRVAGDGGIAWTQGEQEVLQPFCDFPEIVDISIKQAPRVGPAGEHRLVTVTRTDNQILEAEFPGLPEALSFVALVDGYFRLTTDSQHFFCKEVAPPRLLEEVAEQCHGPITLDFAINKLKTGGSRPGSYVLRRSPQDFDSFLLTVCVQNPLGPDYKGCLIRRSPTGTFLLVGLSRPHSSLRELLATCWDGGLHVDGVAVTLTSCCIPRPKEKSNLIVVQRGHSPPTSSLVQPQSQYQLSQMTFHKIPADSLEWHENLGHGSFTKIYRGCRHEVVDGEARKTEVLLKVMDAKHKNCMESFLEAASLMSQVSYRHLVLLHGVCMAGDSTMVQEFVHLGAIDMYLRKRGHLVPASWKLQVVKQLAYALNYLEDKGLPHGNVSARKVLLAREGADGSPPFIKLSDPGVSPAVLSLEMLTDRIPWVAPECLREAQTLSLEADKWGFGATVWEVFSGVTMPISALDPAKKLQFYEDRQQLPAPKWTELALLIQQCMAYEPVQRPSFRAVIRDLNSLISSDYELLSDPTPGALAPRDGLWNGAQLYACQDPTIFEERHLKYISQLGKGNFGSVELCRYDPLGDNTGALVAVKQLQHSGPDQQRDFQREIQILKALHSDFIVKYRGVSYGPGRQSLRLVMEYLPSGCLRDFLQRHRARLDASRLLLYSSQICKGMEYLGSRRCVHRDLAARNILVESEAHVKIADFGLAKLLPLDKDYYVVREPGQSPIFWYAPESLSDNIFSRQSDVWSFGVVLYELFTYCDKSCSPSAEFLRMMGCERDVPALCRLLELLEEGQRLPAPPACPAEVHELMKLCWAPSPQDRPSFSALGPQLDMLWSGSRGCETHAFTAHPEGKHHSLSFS
- procedureSummary: JAK enzymatic assay (peptide mobility shift), JAK3
- testContext: recombinant JAK3 1 nM, ATP 4 μM, 1 μM JAKtide peptide, 90 minutes
pIC50: −log10 of the molar value.
assayReadout: pIC50

compound=CN(c1ncnc2[nH]ccc12)[C@H]1CC[C@H](CS(=O)(=O)NCCc2ccccc2F)CC1 assayreadout=pIC50 observedvalue=6.83
compound=CN(c1ncnc2[nH]ccc12)[C@H]1CC[C@@H](CS(=O)(=O)NCCc2ccccc2)CC1 assayreadout=pIC50 observedvalue=6.92
compound="CN(c1ncnc2[nH]ccc12)[C@H]1CC[C@H](CS(=O)(=O)NCC(O)c2ccc(F)c(F)c2)CC1 (some centres unmarked)" assayreadout=pIC50 observedvalue=6.62
compound=COc1cccc(CCNS(=O)(=O)C[C@H]2CC[C@H](N(C)c3ncnc4[nH]ccc34)CC2)c1 assayreadout=pIC50 observedvalue=6.52
compound=COc1ccccc1CCCNS(=O)(=O)C[C@H]1CC[C@H](N(C)c2ncnc3[nH]ccc23)CC1 assayreadout=pIC50 observedvalue=6.68
compound=Cc1cnc(CNS(=O)(=O)C[C@H]2CC[C@H](N(C)c3ncnc4[nH]ccc34)CC2)cn1 assayreadout=pIC50 observedvalue=6.31
compound=CN(Cc1cccnc1)S(=O)(=O)C[C@H]1CC[C@H](N(C)c2ncnc3[nH]ccc23)CC1 assayreadout=pIC50 observedvalue=6.21
compound=CN(c1ncnc2[nH]ccc12)[C@H]1CC[C@H](CS(=O)(=O)NCc2ccccc2)CC1 assayreadout=pIC50 observedvalue=6.74
